- TARGET: human T-bet (Homo sapiens, UniProt Q9UL17)
- Construct: expressed in transfected cells; host or cells: engineered HEK cells (HEKT-bet)
- ASSAY_SUMMARY: HEKT-bet-luc assay (T-bet dependent luciferase reporter in engineered HEK cells)
- Format: cell-based
- PARTICULARS: Table 4; HEKT-bet cells, compound 24 hours; IC50 normalized to reference ER-213038; read-out: IC50
Listed compounds paired with reported pIC50
On this scale, pIC50 is minus log10 of a concentration expressed in M (mol/L).

Consider the following illustrative entries.
# COMPOUND, MEAS_VALUE
rows = [
    ("COCCN1C(=O)N(Cc2cccc(OC)c2)C(=O)C12CCN(Cc1c3ccccc3c(C)c3ccccc13)CC2", 6.70),
    ("COCCN1C(=O)N(CCCOc2ccccc2)C(=O)C12CCN(Cc1ccc3ccccc3c1)CC2", 6.41),
    ("COc1cc(CN2CCC3(CC2)C(=O)N(C/C=C/c2ccccc2)C(=O)N3Cc2cccc3cccnc23)cc(OC)c1", 6.54),
    ("COCCN1C(=O)N(Cc2cccc(OC)c2)C(=O)C12CCN(Cc1cccc3cccnc13)CC2", 6.37),
    ("COCN1C(=O)N(C/C=C/c2ccccc2)C(=O)C12CCN(Cc1cccc3ccccc13)CC2", 6.51),
]

Task: # returns recorded pIC50 (system: human T-bet (Homo sapiens, UniProt Q9UL17)) for COCCN1C(=O)N(Cc2cccc(OC)c2)C(=O)C12CCN(Cc1ccc(C)cc1C)CC2 [Example 228]
Output: 6.43

Task: # returns recorded pIC50 (system: human T-bet (Homo sapiens, UniProt Q9UL17)) for `COCCN1C(=O)N(Cc2cccc(OC)c2)C(=O)C12CCN(Cc1cccc(OC(F)(F)F)c1)CC2`
Output: 6.54

Task: # returns recorded pIC50 (system: human T-bet (Homo sapiens, UniProt Q9UL17)) for `COc1cccc(CN2C(=O)N(Cc3ccc4c(c3)nnn4C)C3(CCN(Cc4cccc5ccccc45)CC3)C2=O)c1`
Output: 6.41

Task: # returns recorded pIC50 (system: human T-bet (Homo sapiens, UniProt Q9UL17)) for `COCCN1C(=O)N(Cc2ccccc2)C(=O)C12CCN(Cc1cc(OC)cc(OC)c1)CC2`
Output: 6.57

Task: # returns recorded pIC50 (system: human T-bet (Homo sapiens, UniProt Q9UL17)) for `CCc1ccccc1CN1CCC2(CC1)C(=O)N(Cc1cccc(OC)c1)C(=O)N2CCOC`
Output: 6.79

Task: # returns recorded pIC50 (system: human T-bet (Homo sapiens, UniProt Q9UL17)) for `COCCN1C(=O)N(Cc2cccc(OC)c2)C(=O)C12CCN(Cc1ccc(C)c3ccccc13)CC2`
Output: 7.09

Task: # returns recorded pIC50 (system: human T-bet (Homo sapiens, UniProt Q9UL17)) for `COCCN1C(=O)N(CCCc2ccccc2)C(=O)C12CCN(Cc1cccc(C)c1)CC2`
Output: 6.36

Task: # returns recorded pIC50 (system: human T-bet (Homo sapiens, UniProt Q9UL17)) for `COCCN1C(=O)N(CCCC2CCCCC2)C(=O)C12CCN(Cc1ccccc1)CC2`
Output: 6.36

---

Listed compounds paired with reported pIC50
- TARGET: human T-bet (Homo sapiens, UniProt Q9UL17)
- Construct: expressed in transfected cells; host or cells: engineered HEK cells (HEKT-bet)
- Sequence (Q9UL17 1-535): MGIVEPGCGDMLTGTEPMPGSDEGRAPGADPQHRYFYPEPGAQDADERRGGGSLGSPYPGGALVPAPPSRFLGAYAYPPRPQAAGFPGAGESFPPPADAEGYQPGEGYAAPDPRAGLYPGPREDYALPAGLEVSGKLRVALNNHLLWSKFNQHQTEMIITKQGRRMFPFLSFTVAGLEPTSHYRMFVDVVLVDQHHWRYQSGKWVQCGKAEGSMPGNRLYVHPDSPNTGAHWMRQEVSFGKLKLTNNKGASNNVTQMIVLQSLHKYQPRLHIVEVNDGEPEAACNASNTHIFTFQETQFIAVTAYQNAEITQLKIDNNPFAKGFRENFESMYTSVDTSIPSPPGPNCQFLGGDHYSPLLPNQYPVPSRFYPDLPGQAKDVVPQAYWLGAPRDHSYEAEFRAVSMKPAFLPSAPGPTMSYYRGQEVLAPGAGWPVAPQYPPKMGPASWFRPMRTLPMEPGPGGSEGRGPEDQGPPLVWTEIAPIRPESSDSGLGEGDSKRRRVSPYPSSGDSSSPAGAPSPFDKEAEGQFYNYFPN
- ASSAY_SUMMARY: HEKT-bet-luc assay (T-bet dependent luciferase reporter in engineered HEK cells)
- Assay type: cell-based
- PARTICULARS: Table 4; HEKT-bet cells, compound 24 hours; IC50 normalized to reference ER-213038; read-out: IC50
On this scale, pIC50 is minus log10 of a concentration expressed in M (mol/L).

# CHEMICAL_SMILES, TARGET, ASSAY_METRIC, MEAS_VALUE
rows = [
    ("COCCN1C(=O)N(CCCOc2ccccc2)C(=O)C12CCN(Cc1cccc3ccccc13)CC2", "human T-bet (Homo sapiens, UniProt Q9UL17)", "pIC50", 6.82),
    ("COCCN1C(=O)N(Cc2cccc(OC)c2)C(=O)C12CCN(Cc1nn(-c3ccccc3)nc1C)CC2", "human T-bet (Homo sapiens, UniProt Q9UL17)", "pIC50", 6.36),
    ("COc1cccc(CN2C(=O)N(Cc3ccccn3)C3(CCN(Cc4cc(OC)cc(OC)c4)CC3)C2=O)c1", "human T-bet (Homo sapiens, UniProt Q9UL17)", "pIC50", 6.67),
    ("COCCN1C(=O)N(Cc2cccc(OC)c2)C(=O)C12CCN(Cc1cccc(-c3cccc(OC)c3)c1)CC2", "human T-bet (Homo sapiens, UniProt Q9UL17)", "pIC50", 6.32),
    ("COCCN1C(=O)N(Cc2cccc(OC)c2)C(=O)C12CCN(Cc1ccc3cc(OC)ccc3c1)CC2", "human T-bet (Homo sapiens, UniProt Q9UL17)", "pIC50", 6.91),
    ("COCCN1C(=O)N(Cc2cccc(OC)c2)C(=O)C12CCN(Cc1cccc(OC)c1F)CC2", "human T-bet (Homo sapiens, UniProt Q9UL17)", "pIC50", 6.22),
]

Kindly review the next compound as well.
Task: # returns recorded pIC50 (system: human T-bet (Homo sapiens, UniProt Q9UL17)) for `COCCN1C(=O)N(CCCOc2ccccc2)C(=O)C12CCN(Cc1cc(OC)cc(OC)c1)CC2`
Output: 6.58

The reported measurements were obtained from patent US7666875B2.
